- TEST_SUMMARY: physchem
- MEASUREMENT_PARAMETERS: 25 °C, water
Assign Yes whenever solubility does not fall below 2 mg/mL; assign No whenever it does.

- CHEMICAL_SMILES: "O=C(O)c1cccc(C(=O)O)c1"
  CAT: "No"
- CHEMICAL_SMILES: "CCCCCCCCC(=O)O"
  CAT: "No"
- CHEMICAL_SMILES: "O=C(O)c1ccccc1C(=O)O"
  CAT: "Yes"
- CHEMICAL_SMILES: "O=C(O)/C=C/C(=O)O"
  CAT: "Yes"
- CHEMICAL_SMILES: "O=C(O)c1ccc(C(=O)O)cc1"
  CAT: "No"
- CHEMICAL_SMILES: "Nc1ccc(C(=O)O)cc1"
  CAT: "Yes"
- CHEMICAL_SMILES: "CCCCCC(=O)O"
  CAT: "Yes"
- CHEMICAL_SMILES: "CCCCCCC(=O)O"
  CAT: "Yes"
- CHEMICAL_SMILES: "CCCCCCCCCCCC(=O)O"
  CAT: "No"

###

- TEST_SUMMARY: physchem
Assign True whenever pKa does not fall below 4; assign False whenever it does.

- MOLECULE: "CCCCCCCC/C=C\\CCCCCCCC(=O)O [Oleic acid, oleic acid]"
  CAT: "True"
- MOLECULE: "CCCCCCCCCCCC(=O)O [Lauric acid, lauric acid]"
  CAT: "True"
- MOLECULE: "O=C(O)c1ccccc1C(=O)O [Phthalic acid, phthalic acid]"
  CAT: "False"
- MOLECULE: "O=C(O)CCCCC(=O)O [Adipic acid, adipic acid]"
  CAT: "True"
- MOLECULE: "O=C(O)/C=C/C(=O)O [Fumaric acid, fumaric acid]"
  CAT: "False"
